- measurement_notes: protein stability index of a GFP-peptide fusion (yeast GPS) (PSI 1-4); higher = more stable; sorted into four equal gates, so the index is relative within each strain
- condition_notes: san1∆
Quick rule for you: protein stability index at 3 or higher means class 1, lower means class 0.

Q: Check the entry ENEDGNIEERKEKIQHE [BRR2] : does protein stability index equal or exceed 3?
Result: class 1

Q: Determine whether measured protein stability index meets or exceeds 3 for FPQGLNIVMDSKQNGIE [SSN8]
Result: class 1

Q: Has TDRLSTTQRRYEKAQKD [SMC1] a recorded protein stability index greater than or equal to 3?
Result: class 0

Q: Evaluate CNDEDKDLETLYNKIWT [ECM29] : protein stability index at minimum 3?
Result: class 0

Q: Given the entry NDVTRRTVKNILVSVLP [CSL4] , answer whether its protein stability index meets or surpasses 3.
Result: class 1

Q: Has EGNTVLEKGNNPSVKQG [SWP82] a recorded protein stability index greater than or equal to 3?
Result: class 1

Q: Is protein stability index for QPVNFNRSWDHAYNITF [RPO31] at or above 3?
Result: class 0

----------
- measurement_notes: protein stability index of a GFP-peptide fusion (yeast GPS) (PSI 1-4); higher = more stable; sorted into four equal gates, so the index is relative within each strain
- condition_notes: ubr1∆
reported_endpoint: protein stability index
// no unit, no text: just the number

Q: Item NEDDALIYGISDEERDD [AAR2] has what recorded protein stability index?
Result: 3.2

Q: Requested field: protein stability index. Item: RKAYFTAPSSERRVLLS [RPL26B]
Result: 1.66

Q: Field request: protein stability index | item: DRQCMIMDELLSSIAER [DIB1]
Result: 2.68

Q: Give the measured protein stability index of DFDNIEFKKIPRVKGFK [SEC65] .
Result: 3.13

Q: What value of protein stability index has been recorded for this entry: ALPSTHKVTQKKDIKIG [SIR4]
Result: 2.77

Q: So what does the record say about protein stability index for HDIIEGINAGEIEIPEN [RPL12A] ?
Result: 2.4

Q: Query: protein stability index; subject: IKVDGAVGNLGNAIEVT [RPL22B]
Result: 1.58

Q: Data request, read-out protein stability index, for ATGKKSRGINKGHKFNN [RPL15A]
Result: 2.17

Q: Find the recorded protein stability index belonging to PNFEASFVHGVVGQLFQ [SMC2] and report it.
Result: 3.18

Q: Item LCTLNDSKGSLYSVKFA [YGL100W/SEH1] has what recorded protein stability index?
Result: 2.49

Q: // returns reported protein stability index for input QVLKCKESWDPNTTKTK [YGR119C/NUP57]
Result: 3.55

Q: Reported protein stability index, sequence ETLVLDEADKMIDLGFE [PRP28] : ____
Result: 3.08

Q: So what's the measured protein stability index for this one? LYSGLIIDEIITQMRVN [RPC82]
Result: 1.58

Q: Consider the sequence shown here: KLSKSATESIKNRRRIH [SMC1] What is its recorded protein stability index?
Result: 2.62

----------
- measurement_notes: protein stability index of a GFP-peptide fusion (yeast GPS) (PSI 1-4); higher = more stable; sorted into four equal gates, so the index is relative within each strain
- condition_notes: doa10∆
reported_endpoint: protein stability index
Output spec: single numeric token, no unit.

Q: # query: protein stability index of entry GNIVAELAQDPQTMEHY [YCS4]
Result: 2.9

Q: Looking for the measured protein stability index of KLTAERANLRKYREGQV [POP1] , can you help?
Result: 2.91

Q: # query: protein stability index of entry IPTLAIDSVEVETNTTV [RPB3]
Result: 2.82

Q: Any idea what its protein stability index is? The sequence is PDFLSKYSAITSSIFQE [NUT1]
Result: 1.88

Q: Which value of protein stability index has been reported for LKIYAQIEKKEIKKMII [YCG1] in the records?
Result: 3.06

Q: What measured protein stability index goes with SVTEIPLKLSGEGPFTV [YMR129W/POM152] ?
Result: 2.96

Q: Field request: protein stability index | item: IYATFLNESDCLEACSF [YDL116W/NUP84]
Result: 2.56

Q: Field request: protein stability index | item: LTIDDLGVASFHGTSTK [FAS2]
Result: 2.99

Q: Quick check: protein stability index of LDKQIEELVEAIVLPMK [RPT5] ?
Result: 2.97

Q: // query protein stability index value for entry EPLSDTEEPDLAIADVE [DSN1]
Result: 2.96

Q: Fill in: protein stability index of IRLSKILEDDFAVALKN [CDC53] is ___
Result: 3.19

Q: Name the recorded protein stability index for DKFFNEVNKSELYLTAE [SIR3] .
Result: 3.43

Q: Please report the recorded protein stability index for STFRLNLSVTSPYNADF [RPO21] .
Result: 2.21

Q: protein stability index lookup needed for KNIQSKDSYINANTIET [FAS2] , thanks.
Result: 2.9

Q: Recorded protein stability index of IVEINNVSNTFNKTTNI [YJL041W/NSP1] , please.
Result: 2.87

Q: Which protein stability index is reported for this sequence? NTSAQHVESDKITAKTQ [IRR1]
Result: 2.92

Q: What does the record list as protein stability index for SVAVHFQYVIDESSGTS [SMC4] ?
Result: 1.99

Q: Query (sequence): NTYKRLVIGIFKRDLLR [YJL039C/NUP192] ; field requested: protein stability index
Result: 2.5

Q: # protein stability index lookup, item DMIKCFLPKLNSVRNSL [NUT1]
Result: 2.52

Q: For the sequence shown here, AISKKNKSLKYVIHGIE [LIN1] , give the reported protein stability index.
Result: 2.02

Q: Quick one: protein stability index for SGNEMPPQDAEGWFYKR [RPS19A] ?
Result: 3.21

Q: I am curious: what protein stability index value has been reported for FTNVPLNLEQVTLNKYC [YJL039C/NUP192] ?
Result: 1.99

Q: Any idea what its protein stability index is? The sequence is HLKILASSNFPFLNETK [RPC82]
Result: 2.52

Q: Look up protein stability index: NTNGTNASANSTSFSFN [YOR098C/NUP1]
Result: 2.91

Q: Report protein stability index for ELQEKNVELLNCIRILA [YIL149C/MLP2] please.
Result: 2.19

Q: Recorded protein stability index for DNNTASNMLGSNEDVMM [RPB3] , please?
Result: 2.04

Q: I would be grateful if you could share the reported protein stability index for PKKEYDDDAVRREVQIQ [NSL1] .
Result: 1.4

Q: # get_value(readout='protein stability index', item= TNSHLPAGKQVEISLVN [FAS1] )
Result: 3.48

Q: Reported protein stability index for LCEEYLVNNGQSDLEHD [RPN7] : what is it?
Result: 2.78

Q: For KKGVRVTLDITTLTIMR [RPT4] , what is its reported protein stability index?
Result: 2.48
